# Tested on: 519858-162-T-J1-PDC complex spheroid viability
# Method summary: Anticancer human tumor 519858-162-T-J1-PDC patient-derived colon adenocarcinoma cell line growth inhibition [GQUAD]
# Measurement parameters: second compound 3.16 µM; first compound 0.00999 µM; hits give low values
# From the text: DNA G-quadruplex Stabilizer Agents in Combinations in Complex Spheroids A high-throughput screen of multi-cell type tumor spheroids was designed to identify active combinations of DNA G-quadruplex stabilizer agents and targeted small molecules. […] Compounds. […] If the clinical Cmax for an agent had not been determined, the highest concentration tested was 10 microM. […]
Readout kind: viability, T/C (%)
The answer is to be given in %; state only the numeric part.

As a guide, the following entries are already answered.
Cc1[nH]c2ccccc2c1CCNCc1ccc(/C=C/C(=O)NO)cc1 + Cc1[nH]c2ccc(F)cc2c1-c1nc2c3cccnc3c3ncccc3c2[nH]1 = 64.8
Cn1ncnc1[C@H]1c2n[nH]c(=O)c3cc(F)cc(c23)N[C@@H]1c1ccc(F)cc1 + Cc1cnc(CNC(=O)c2c(=O)c3ccc(N4CCCN(C)CC4)nc3n3c2sc2ccccc23)cn1 = 50.3
Cn1ncnc1[C@H]1c2n[nH]c(=O)c3cc(F)cc(c23)N[C@@H]1c1ccc(F)cc1 + CN(C)c1ccc(Nc2c3ccc(NC(=O)CCN4CCCC4)cc3nc3cc(NC(=O)CCN4CCCC4)ccc23)cc1 = 78.6

Give reported viability, T/C value for CC[C@@]1(O)C(=O)OCc2c1cc1n(c2=O)Cc2cc3c(CN(C)C)c(O)ccc3nc2-1 + Cc1[nH]c2ccc(F)cc2c1-c1nc2c3cccnc3c3ncccc3c2[nH]1 46.5

Give reported viability, T/C value for CCc1c2c(nc3ccc(O)cc13)-c1cc3c(c(=O)n1C2)COC(=O)[C@]3(O)CC + Cc1cnc(CNC(=O)c2c(=O)c3ccc(N4CCCN(C)CC4)nc3n3c2sc2ccccc23)cn1 47.8

Give reported viability, T/C value for CCc1c2c(nc3ccc(O)cc13)-c1cc3c(c(=O)n1C2)COC(=O)[C@]3(O)CC + Cc1[nH]c2ccc(F)cc2c1-c1nc2c3cccnc3c3ncccc3c2[nH]1 47.8

Give reported viability, T/C value for CC[C@@]1(O)C(=O)OCc2c1cc1n(c2=O)Cc2cc3c(CN(C)C)c(O)ccc3nc2-1 + Cc1cnc(CNC(=O)c2c(=O)c3ccc(N4CCCN(C)CC4)nc3n3c2sc2ccccc23)cn1 75.9

---

# System: 519858-162-T-J1-PDC complex spheroid viability
# Method summary: Anticancer human tumor 519858-162-T-J1-PDC cell line growth inhibition [GQUAD];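 further: spheroids exposed to compounds for 7 days; 100% = DMSO vehicle control viability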
# Measurement parameters: second compound 0.1 µM; first compound 1 µM; hits give low values
# From the text: DNA G-quadruplex Stabilizer Agents in Combinations in Complex Spheroids A high-throughput screen of multi-cell type tumor spheroids was designed to identify active combinations of DNA G-quadruplex stabilizer agents and targeted small molecules. […] Compounds. […] If the clinical Cmax for an agent had not been determined, the highest concentration tested was 10 microM. […]
Note to self: use fulfilled only for viability, T/C readings below 80%; a reading exactly at 80% still gets not fulfilled.

O=C(c1cc(Cc2n[nH]c(=O)c3ccccc23)ccc1F)N1CCN(C(=O)C2CC2)CC1 + Cc1[nH]c2ccc(F)cc2c1-c1nc2c3cccnc3c3ncccc3c2[nH]1 = not fulfilled
C=CC(=O)N1CCN(c2nc(=O)n(-c3c(C)ccnc3C(C)C)c3nc(-c4c(O)cccc4F)c(F)cc23)C(C)C1 (stereo not given) + Cc1cnc(CNC(=O)c2c(=O)c3ccc(N4CCCN(C)CC4)nc3n3c2sc2ccccc23)cn1 = not fulfilled

Criterion: viability, T/C strictly below 80%. Is it met by CC1COCCN1c1cc(C2(S(C)(=N)=O)CC2)nc(-c2ccnc3[nH]ccc23)n1 (stereo not given) + CN(C)c1ccc(Nc2c3ccc(NC(=O)CCN4CCCC4)cc3nc3cc(NC(=O)CCN4CCCC4)ccc23)cc1 ? not fulfilled

Criterion: viability, T/C strictly below 80%. Is it met by O=C(NO)c1cnc(N2CCN(S(=O)(=O)c3ccc4ccccc4c3)CC2)nc1 + Cc1cnc(CNC(=O)c2c(=O)c3ccc(N4CCCN(C)CC4)nc3n3c2sc2ccccc23)cn1 ? fulfilled

Criterion: viability, T/C strictly below 80%. Is it met by CCCS(=O)(=O)Nc1ccc(F)c(C(=O)c2c[nH]c3ncc(-c4ccc(Cl)cc4)cc23)c1F + Cc1[nH]c2ccc(F)cc2c1-c1nc2c3cccnc3c3ncccc3c2[nH]1 ? not fulfilled

Criterion: viability, T/C strictly below 80%. Is it met by CC(=O)O[C@H]1C(=O)[C@@]2(C)[C@H]([C@H](OC(=O)c3ccccc3)[C@]3(O)C[C@H](OC(=O)[C@H](O)[C@@H](NC(=O)c4ccccc4)c4ccccc4)C(C)=C1C3(C)C)[C@]1(OC(C)=O)CO[C@@H]1C[C@@H]2O + Cc1cnc(CNC(=O)c2c(=O)c3ccc(N4CCCN(C)CC4)nc3n3c2sc2ccccc23)cn1 ? not fulfilled

Criterion: viability, T/C strictly below 80%. Is it met by Cc1cccc(N(C)C(=O)C2C(O)CCN2c2nc(C)cc(C(F)(F)F)c2C#N)c1 (stereo not given) + Cc1cnc(CNC(=O)c2c(=O)c3ccc(N4CCCN(C)CC4)nc3n3c2sc2ccccc23)cn1 ? fulfilled

Criterion: viability, T/C strictly below 80%. Is it met by O=C(NO)c1cnc(N2CCN(S(=O)(=O)c3ccc4ccccc4c3)CC2)nc1 + Cc1[nH]c2ccc(F)cc2c1-c1nc2c3cccnc3c3ncccc3c2[nH]1 ? fulfilled
